// data source = patent US6444850B1

Listed next: entries and their corresponding C. V. (%) Fungicidal Activities against RCB at 10 ppm (TABLE 6).
test system: Pyricularia oryzae Carvara KA301; assay type: in vivo; settings: 10 ppm, sprayed on Nakdong rice plant; control value from lesion area
QUANTITY: C. V. (%) Fungicidal Activities against RCB at 10 ppm (TABLE 6)

* CO/C=C(/C(=O)OC)c1ccccc1COc1cccc(OC(F)=C(c2ccccc2)C(F)(F)F)c1 | 90
* CNC(=O)/C(=N/OC)c1ccccc1COc1cccc(OC(F)=C(c2cc(C)cc(C)c2)C(F)(F)F)c1 | 100
* COC=C(C(=O)OC)c1ccccc1COc1cccc(OC(F)=C(c2cccc(Cl)c2)C(F)(F)F)c1 | 95
* CON=C(C(=O)OC)c1ccccc1COc1cccc(OC(F)=C(c2ccc(C)cc2)C(F)(F)F)c1 | 94
* CNC(=O)C(=NOC)c1ccccc1COc1cccc(OC(F)=C(c2ccc(F)cc2)C(F)(F)F)c1 | 95
* CNC(=O)C(=NOC)c1ccccc1COc1cccc(OC(F)=C(c2ccc(C)cc2)C(F)(F)F)c1 | 92

----------
A collection of compounds and their measured C. V. (%) CGM
test system: Botrytis cinerae; experiment: Fungicidal activity against cucumber gray mold rot (CGM) disease; assay type: in vivo; settings: 50 ppm, control value
QUANTITY: C. V. (%) CGM

- CON=C(C(=O)OC)c1ccccc1COc1cccc(OC(F)=Cc2ccccc2)c1: 15
- COC=C(C(=O)OC)c1ccccc1COc1cccc(OC(F)=C(c2cccc(C(F)(F)F)c2)C(F)(F)F)c1: 0
- CCc1ccc(C(=C(F)Oc2cccc(OCc3ccccc3C(=COC)C(=O)NC)c2)C(F)(F)F)cc1: 0
- CON=C(C(=O)OC)c1ccccc1COc1cccc(OC(F)=C(c2ccc(OC)cc2)C(F)(F)F)c1: 0
- CON=C(C(=O)OC)c1ccccc1COc1cccc(OC(F)=C(c2ccc(C)cc2)C(F)(F)F)c1: 0
- COC=C(C(=O)OC)c1ccccc1COc1cccc(OC(F)=C(c2ccc(Cl)cc2)C(F)(F)F)c1: 25
- CON=C(C(=O)OC)c1ccccc1COc1cccc(OC(F)=C(c2cccc(OC)c2)C(F)(F)F)c1: 9

----------
test system: Botrytis cinerae; assay: Fungicidal activity against cucumber gray mold rot (CGM) disease; assay type: in vivo; conditions: 50 ppm, control value
Overview of recorded C. V. (%) CGM for various compounds
QUANTITY: C. V. (%) CGM

- CCc1ccc(C(=C(F)Oc2cccc(OCc3ccccc3C(=NOC)C(=O)OC)c2)C(F)(F)F)cc1 [Compound 60]: 0
- CCc1ccc(C(=C(F)Oc2cccc(OCc3ccccc3C(=COC)C(=O)OC)c2)C(F)(F)F)cc1 [Compound 58]: 25
- COC(=O)C(=CSC)c1ccccc1COc1cccc(OC(F)=Cc2cc(C)c(C)cc2C)c1 [Compound 24]: 27
- CNC(=O)C(=NOC)c1ccccc1COc1cccc(OC(F)=C(c2cccc(F)c2)C(F)(F)F)c1 [Compound 95]: 0
- CON=C(C(=O)OC)c1ccccc1COc1cccc(OC(F)=Cc2cccc(OC)c2)c1 [Compound 27]: 0
- COC=C(C(=O)OC)c1ccccc1COc1cccc(OC(F)=C(c2cccc(OC)c2)C(F)(F)F)c1 [Compound 71]: 41
- COC=C(C(=O)OC)c1ccccc1COc1cccc(OC(F)=Cc2ccc(C)cc2)c1 [Compound 10]: 0
- COC=C(C(=O)OC)c1ccccc1COc1cccc(OC(F)=Cc2cccc(OC)c2)c1 [Compound 25]: 0
- CNC(=O)C(=COC)c1ccccc1COc1cccc(OC(F)=Cc2ccc(OC)cc2)c1 [Compound 30]: 28
- CON=C(C(=O)OC)c1ccccc1COc1cccc(OC(F)=Cc2cc(C)c(C)cc2C)c1 [Compound 23]: 20
- CON=C(C(=O)OC)c1ccccc1COc1cccc(OC(F)=Cc2cccc(C)c2)c1 [Compound 8]: 51
- CNC(=O)/C(=C/OC)c1ccccc1COc1cccc(OC(F)=C(c2cc(C)cc(C)c2)C(F)(F)F)c1 [Compound 68]: 0
- COC=C(C(=O)OC)c1ccccc1COc1cccc(OC(F)=Cc2ccc(F)cc2)c1 [Compound 36]: 0
- CNC(=O)C(=COC)c1ccccc1COc1cccc(OC(F)=Cc2cc(C)c(C)cc2C)c1 [Compound 22]: 0
- CON=C(C(=O)OC)c1ccccc1COc1cccc(OC(F)=Cc2ccc(C)c(C)c2)c1 [Compound 15]: 15
- CO/C=C(/C(=O)OC)c1ccccc1COc1cccc(OC(F)=C(c2ccccc2)C(F)(F)F)c1 [Compound 45]: 0
